measured-on: BSA (Bos taurus, UniProt P02769)
assay-remarks: Biacore 8K BSA control
Assay type: binding
Design: key: # = no binding; * = minimal non-specific binding
study-conditions: 10 nM simeprevir present

molecule	BSA control
PRSIM_36: Tn3 PRSIM binding molecule, SEQ ID NO: 8 (protein, PRSIM_36) RLDAPSQIEVKDVTDTTALITWSWPRDDDYDIWYFELTYGIKDVPGDRTTIKLLNYASPYSIGNLKPDTEYEVSLISVVPDTYGRGTSNPAKITFKTGL	#
PRSIM_67: scFv PRSIM binding molecule, SEQ ID NO: 13 (protein, PRSIM_67) scFv: EVQLVQSGAEVKKPGAAVRISCKTSGYVFTSYYVHWVRQAPGQGLEWMGVINPSGGNTNYAQKFQDRVTMTRDTSTTTVYMELSSLMFDDTAVYYCAKRDYGGPLANWGRGTLVTVSSGGGGSGGGGSGGGGSALSYELTQPPSVSEAPRQRVTISCSGSSSNIGNNAVNWYQQLPGKAPKLLIFYDDLLPSGVSDRFSGSKSGTSASLAISGLQSEDEADYYCAAWDDSLNGLVFGTGTKLTVL	#
PRSIM_72: scFv PRSIM binding molecule, SEQ ID NO: 14 (protein, PRSIM_72) scFv: QVQLVQSGAEVKKPGSSVKVSCKASGGTFSSYAISWVRQAPGQGLEWMGGIIPIFGTANYAQKFQGRVTITADESTSTAYMELSSLRSEDTAVYYCARGMAHFYQFDLWGQGTLVTVSSGGGGSGGGGSGGGGSAQSVLTQPPSASGTPGQRVTISCSGSSSNIGSNTVNWYQQLPGTAPKLLIYSNNQRPSGVPDRFSGSKSGTSASLAISGLQSEDEADYYCAAGDHDHEHVVFGGGTKLTVL	#

Where do these numbers come from? They come from patent US20220380801A1.
